Target: neuronal nicotinic acetylcholine receptors (Rattus norvegicus, UniProt P09483+P12390)
Sequence (P09483 31-630): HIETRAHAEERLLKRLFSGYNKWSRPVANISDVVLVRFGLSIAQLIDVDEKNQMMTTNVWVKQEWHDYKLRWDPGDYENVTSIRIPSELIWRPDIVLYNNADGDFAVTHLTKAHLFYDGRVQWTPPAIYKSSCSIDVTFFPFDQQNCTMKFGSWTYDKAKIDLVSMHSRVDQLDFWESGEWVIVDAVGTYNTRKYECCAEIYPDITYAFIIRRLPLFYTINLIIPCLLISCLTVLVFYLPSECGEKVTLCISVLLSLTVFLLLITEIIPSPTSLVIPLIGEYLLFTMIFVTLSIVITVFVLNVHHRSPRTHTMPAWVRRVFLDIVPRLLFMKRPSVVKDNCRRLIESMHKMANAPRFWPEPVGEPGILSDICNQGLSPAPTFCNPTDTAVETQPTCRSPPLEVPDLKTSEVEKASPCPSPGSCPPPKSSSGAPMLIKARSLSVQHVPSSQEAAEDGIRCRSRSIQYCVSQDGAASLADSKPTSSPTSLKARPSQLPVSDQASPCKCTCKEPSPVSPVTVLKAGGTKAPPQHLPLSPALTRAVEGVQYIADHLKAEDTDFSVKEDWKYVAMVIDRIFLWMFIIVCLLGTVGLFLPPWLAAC
Sequence (P12390 25-500): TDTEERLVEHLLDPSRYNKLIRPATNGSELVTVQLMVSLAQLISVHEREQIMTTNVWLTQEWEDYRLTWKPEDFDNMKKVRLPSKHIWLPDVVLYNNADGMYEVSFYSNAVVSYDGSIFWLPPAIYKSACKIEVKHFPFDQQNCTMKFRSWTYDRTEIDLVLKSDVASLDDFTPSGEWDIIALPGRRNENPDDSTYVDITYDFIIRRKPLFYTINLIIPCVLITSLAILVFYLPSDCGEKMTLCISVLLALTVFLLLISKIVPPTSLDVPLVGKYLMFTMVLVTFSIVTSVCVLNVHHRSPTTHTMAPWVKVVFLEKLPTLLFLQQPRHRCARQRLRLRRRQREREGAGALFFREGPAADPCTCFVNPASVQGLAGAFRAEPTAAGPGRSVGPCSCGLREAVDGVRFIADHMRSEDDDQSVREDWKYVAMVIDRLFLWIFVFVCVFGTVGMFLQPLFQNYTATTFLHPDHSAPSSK
Assay: [3H]-cytisine binding to neuronal nicotinic acetylcholine receptors, crude synaptic membranes from whole rat brain
Settings: [3H]-CYT 1.25 nM, 60 minutes at 4° C., Ki from IC50 by Cheng and Prusoff correction
Method: The in vitro protocols for determination of nicotinic acetylcholine channel receptor binding potencies of ligands was determined as follows. […] Homogenate (containing 125-150 μg protein) was added to triplicate tubes containing the range of concentrations of test compound described above and [^3H]-CYT (1.25 nM) in a final volume of 500 μl. […] The filters are counted in 4 mL of Ecolume® (ICN). […]
quantity kind: Ki (nM)

                chemical_smiles  number
0  Clc1ncc(OC[C@@H]2CCNC2)cc1Br   0.021
